Taken from patent US20120121583A1.

Target: T1, Biotinylated human soluble TWEAK (amino acids 99-249 of SEQ ID NO: 60) (human, UniProt O43508 99-249, biotinylated (sites not given))
T1 construct: Immobilised on the streptavidin sensor in the Biacore half-life assay; also called Human TWEAK; soluble human TWEAK
T1 sequence: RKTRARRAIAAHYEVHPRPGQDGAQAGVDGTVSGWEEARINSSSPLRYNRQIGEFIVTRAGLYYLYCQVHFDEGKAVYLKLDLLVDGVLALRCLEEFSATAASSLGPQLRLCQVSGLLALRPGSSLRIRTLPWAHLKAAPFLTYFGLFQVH
Experiment: Biacore SPR, biotinylated human soluble TWEAK on SA sensor, antibody as analyte, 37 C
Short version: t/2 diss at least 100 min is YES, less is NO.

Antibody 29 (antibody, V domains shown, Humanized variant of antibody 305; also called humanized 305 variant 305-LC2 / 305-HC8) VH: EVQLLESGGGLVQPGGSLRLSCAASGFDFSTYYMSWVRQAPGKGLEWVSTVYVRQGTTYYASWLNGRFTISRDNSKNTLDLQMNSLRAEDTAVYYCAKGGYNYDDAFVIWGQGTLVTVSS VL: DIQMTQSPSSVSASVGDRVTITCQASQNIYSNLAWYQQKPGKAPKLLIYTASYLASGVPSRFSGSGSGTDYTLTISSLQPEDFATYYCQTAYYNSRPDTVAFGGGTKVEIK : YES
Antibody 30 (antibody, V domains shown, Humanized variant of antibody 305; also called humanized 305 variant 305-LC1 / 305-HC10) VH: EVQLLESGGGLVQPGGSLRLSCAASGFDFSTYYMSWVRQAPGKGLEWVSTVYVRQGTTYYASWLNGRFTISRDNSKNTLYLQMNSLTAEDTAVYYCAKGGYNYDDAFVIWGQGTLVTVSS VL: DIQMTQSPSSVSASVGDRVTITCQASQNIYSNLAWYQQKPGKAPKLLIYTASYLASGVPSRFSGSGSGTDFTLTISSLQPEDFATYYCQTAYYNSRPDTVAFGGGTKVEIK : NO
Antibody 32 (antibody, V domains shown, Humanized variant of antibody 305; also called humanized 305 variant 305-LC6 / 305-HC8) VH: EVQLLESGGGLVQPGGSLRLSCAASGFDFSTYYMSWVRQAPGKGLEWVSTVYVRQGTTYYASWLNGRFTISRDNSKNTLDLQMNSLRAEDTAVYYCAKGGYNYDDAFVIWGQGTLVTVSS VL: DIQMTQSPSTLSASVGDRVTITCQASQNIYSNLAWYQQKPGKAPKLLIYTASYLASGVPSRFSGSGSGTEFTLTISSLQPDDFATYYCQTAYYNSRPDTVAFGGGTKVEIK : NO
Antibody 27 (antibody, V domains shown, also called humanized 305 variant 305-LC2 / 305-HC4) VH: QVQLVQSGAEVKKPGSSVKVSCKASGFDFSTYYMSWVRQAPGQGLEWMGTVYVRQGTTYYASWLNGRVTITADESTSTAYMELSSLRSEDTAVYYCARGGYNYDDAFVIWGQGTLVTVSS VL: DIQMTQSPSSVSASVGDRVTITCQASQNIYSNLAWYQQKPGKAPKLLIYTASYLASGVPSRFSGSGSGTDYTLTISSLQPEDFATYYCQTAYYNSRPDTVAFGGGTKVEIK : YES
Antibody 31 (antibody, V domains shown, Humanized variant of antibody 305; also called humanized 305 variant 305-LC4 / 305-HC7) VH: EVQLLESGGGLVQPGGSLTLSCAASGFDFSTYYMSWVRQAPGKGLEWVSTVYVRQGTTYYASWLNGRFTISRDNSKNTLYLQMNSLRAEDTAVYYCAKGGYNYDDAFVIWGQGTLVTVSS VL: AIRMTQSPSSFSASTGDRVTITCQASQNIYSNLAWYQQKPGKAPKLLIYTASYLASGVPSRFSGSGSGTDYTLTISCLQSEDFATYYCQTAYYNSRPDTVAFGGGTKVEIK : YES
Antibody 28 (antibody, V domains shown, Humanized variant of antibody 305; also called humanized 305 variant 305-LC2 / 305-HC7) VH: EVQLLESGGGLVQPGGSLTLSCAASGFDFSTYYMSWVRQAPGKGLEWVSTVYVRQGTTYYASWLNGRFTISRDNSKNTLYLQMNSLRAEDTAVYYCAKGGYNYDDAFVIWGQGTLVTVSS VL: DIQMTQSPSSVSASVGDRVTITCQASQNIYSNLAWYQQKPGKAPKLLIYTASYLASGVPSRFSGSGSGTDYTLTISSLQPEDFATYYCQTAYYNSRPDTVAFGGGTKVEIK : YES

Record Antibody 34 (antibody, V domains shown, Humanized variant of antibody 305; also called humanized 305 variant 305-LC4 / 305-HC2) VH: EVQLLESGGGLVQPGGSLRLSCAASGFDFSTYYMSWVRQAPGKGLEWVSTVYVRQGTTYYASWLNGRFTISRDNSKNTLYLQMNSLRAEDTAVYYCAKGGYNYDDAFVIWGQGTLVTVSS VL: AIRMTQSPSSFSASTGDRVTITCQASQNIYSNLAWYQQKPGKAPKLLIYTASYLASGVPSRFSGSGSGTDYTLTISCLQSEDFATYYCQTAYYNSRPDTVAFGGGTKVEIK ; criterion: t/2 diss no lower than 100 min. Met?
YES
